Answer each item with its documented Ki.
- measured_on: UniProtKB G1TEI7
- Sequence (G1TEI7 1-342): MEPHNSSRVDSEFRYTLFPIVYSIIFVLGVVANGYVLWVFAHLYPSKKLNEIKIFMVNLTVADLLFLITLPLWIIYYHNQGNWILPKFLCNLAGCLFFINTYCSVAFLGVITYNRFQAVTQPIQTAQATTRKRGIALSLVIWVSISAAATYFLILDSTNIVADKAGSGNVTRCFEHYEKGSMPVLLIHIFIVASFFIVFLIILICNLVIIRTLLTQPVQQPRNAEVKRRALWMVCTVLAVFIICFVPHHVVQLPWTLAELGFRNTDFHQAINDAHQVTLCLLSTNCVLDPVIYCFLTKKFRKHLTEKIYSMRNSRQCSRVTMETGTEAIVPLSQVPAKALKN
- protocol_summary: PAF receptor binding assay: inhibition of specific [^3 H]C18 -PAF binding to rabbit platelet membranes
Where a name gives a salt, the structure may show the parent alone.
Answers are plain numbers, in nM.

Sample records with Ki:
INSERT INTO measurements (compound, units, data_value) VALUES
  ('CCOCCn1cc(C(=O)CN2CCC(n3c(C)nc4cnccc43)CC2)c2c(Cl)cccc21', 'nM', 10),
  ('CCOCCn1cc(C(=O)N2CCC(Cn3c(C)nc4cnccc43)CC2)c2ccc(-c3ccc(F)cc3)cc21 [Example 8, hydrochloride]', 'nM', 1.2),
  ('CCOCCn1cc(C(=O)CN2CCC(n3c(C)nc4cnccc43)CC2)c2c(C)cccc21', 'nM', 0.5);

We now examine a further compound.
Value of measured Ki for the entry CCOCCn1cc(C(=O)CN2CCC(n3c(C)nc4cnccc43)CC2)c2c(C(=O)OC)cccc21 : 5.2

====

- measured_on: UniProtKB G1TEI7
- protocol_summary: PAF receptor binding assay: inhibition of specific [^3 H]C18 -PAF binding to rabbit platelet membranes
- condition_description: rabbit platelet membranes; 0.6 nM [^3 H]C18 -PAF; 60 minutes at room temperature; pH 7.0; Ki by Cheng and Prusoff from IC50; read-out: Ki
Structures can show the parent of a compound that is named as a salt.
assay_endpoint: Ki (nM)
One number for each entry, in nM.

Sample records with Ki:
INSERT INTO assay_data (molecule, assay_endpoint, data_value) VALUES
  ('Cc1nc2cnccc2n1C1CCN(CC(=O)c2cn(C(=O)N(C)C)c3cccc(Cl)c23)CC1 [Example 26]', 'Ki', 12),
  ('COC(=O)c1cccc2c1c(C(=O)CN1CCC(n3c(C)nc4cnccc43)CC1)cn2C(=O)N(C)C [Example 22]', 'Ki', 12),
  ('Cc1nc2cnccc2n1CC1CCN(S(=O)(=O)c2cn(C(=O)OC(C)(C)C)c3cc(-c4ccc(F)cc4)ccc23)CC1 [Example 15]', 'Ki', 65),
  ('COC(=O)c1cccc2c1c(C(=O)N1CCC(Cn3c(C)nc4cnccc43)CC1)cn2C(=O)N(C)C [Example 5, hydrochloride]', 'Ki', 74),
  ('Cc1nc2cnccc2n1CCN1CCN(S(=O)(=O)c2cn(C(=O)N(C)C)c3cc(-c4ccc(F)cc4)ccc23)CC1 [Example 18]', 'Ki', 110);

We now examine a further molecule.
Short answer on UniProtKB G1TEI7 for Cc1nc2cnccc2n1C1CCN(C(=O)c2c[nH]c3ccccc23)CC1 [Example 3, hydrochloride] , Ki: 100
